test system: NCI-H460; assay: Inhibition test on cell proliferation (MTT), NCI-H460; assay type: cell-based, human; conditions: Homo sapiens, NCI-H460, 72 h, read-out: IC50 (nM) NCI-H460, 72 hours of drug treatment, MTT
measured-property: IC50 (nM)
Give the number; nM is assumed, so skip it.

CC(C)c1c(/C=c2\[nH]c(=O)/c(=C/c3cccc(C(=O)c4ccc(F)cc4)c3)[nH]c2=O)ncn1CCCN1CCN(C(=O)C(C)(C)C)CC1	9.91
CCCC(=O)N1CCN(CCCn2cnc(/C=c3\[nH]c(=O)/c(=C/c4cccc(F)c4)[nH]c3=O)c2C(C)C)CC1	40.3
CC(C)c1c(/C=c2\[nH]c(=O)/c(=C/c3cccc(F)c3)[nH]c2=O)ncn1CCCN1CCOC(COCc2ccccc2)C1 (centres unmarked)	59.7
CC(C)c1c(/C=c2\[nH]c(=O)/c(=C/c3cccc(C(=O)c4ccc(F)cc4)c3)[nH]c2=O)ncn1CCCN1CCN(C(=O)OCc2ccc(B3OC(C)(C)C(C)(C)O3)cc2)CC1	15.4

Attention now shifts to the item below.
Bench note, NCI-H460: entry "CC(C)c1c(/C=c2\[nH]c(=O)/c(=C/c3cccc(C(=O)c4ccc(F)cc4)c3)[nH]c2=O)ncn1CCCN1CCN(C(=O)C2CCCC2)CC1" , its IC50 = 7.86

###

Quick list: IC50 per entry.
system: BxPC-3; test: Inhibition test on cell proliferation (MTT), BxPC-3; type: cell-based, human; conditions: Homo sapiens, BXPC-3, 72 h, read-out: IC50 (nM) BxPC-3
Give just the numeric value; nM need not be written.

CC(C)c1c(/C=c2\[nH]c(=O)/c(=C/c3cccc(C(=O)c4ccc(F)cc4)c3)[nH]c2=O)ncn1CCCN1CCN(S(C)(=O)=O)CC1	3.38

Item: "CC(C)c1c(/C=c2\[nH]c(=O)/c(=C/c3cccc(C(=O)c4ccc(F)cc4)c3)[nH]c2=O)ncn1CCCN1CCN(C(=O)OCc2ccc(B3OC(C)(C)C(C)(C)O3)cc2)CC1" | IC50: 9.22

Please fill in: IC50 reported for "CC(C)c1c(/C=c2\[nH]c(=O)/c(=C/c3cccc(C(=O)c4ccc(F)cc4)c3)[nH]c2=O)ncn1CCCN1CCN(C(=O)C2CCCC2)CC1" = 6.23

###

test system: NCI-H460; assay: Inhibition test on cell proliferation (MTT), NCI-H460; assay type: cell-based, human; conditions: read-out: IC50 (nM) NCI-H460; 72 hours of drug treatment, MTT
measured-property: IC50 (nM)
Record the value in nM, omitting the unit from your answer.

Value of IC50 reported for the compound "O=c1[nH]/c(=C\c2ncn(CCCN3CCNCC3)c2C2CC2)c(=O)[nH]/c1=C\c1cccc(Oc2ccc(F)cc2)c1" is 204

###

system: HCC-LM3; experiment: Inhibition test on cell proliferation (MTT), HCC-LM3; format: cell-based, human; conditions: Homo sapiens, HCCLM3, 72 h, 72 hours of drug treatment, MTT; read-out: IC50 (nM) HCC-LM3
measured-property: IC50 (nM)
Value expressed in nM; do not type the unit.

C=CC(=O)N1CCN(CCCn2cnc(/C=c3\[nH]c(=O)/c(=C/c4cccc(F)c4)[nH]c3=O)c2C(C)C)CC1	31.2
COc1cccc(/C=c2\[nH]c(=O)/c(=C/c3ncn(CCCN4CCOCC4)c3C(C)C)[nH]c2=O)c1	7.54
CC(C)c1c(/C=c2\[nH]c(=O)/c(=C/c3cccc(OC(F)(F)F)c3)[nH]c2=O)ncn1CCCN1CCOCC1	6.55

Shift focus to the following entry.
Form field IC50, entry CC(CN1CCOCC1)Cn1cnc(/C=c2\[nH]c(=O)/c(=C/c3cccc(F)c3)[nH]c2=O)c1C(C)C (stereo not shown) : 7.7

###

test system: HT-29; experiment: Inhibition test on cell proliferation (MTT), HT-29; format: cell-based, human; details: Homo sapiens, HT-29, 72 h, 72 hours of drug treatment
measured-property: IC50 (nM)
Only the number, expressed in nM, is required.

Per the records, this compound ( "CC(C)c1c(/C=c2\[nH]c(=O)/c(=C/c3ccccc3)[nH]c2=O)ncn1CCCN1CCOCC1" ) has IC50 equal to 11.8

Record summary for CC(C)(C)c1[nH]cnc1/C=c1\[nH]c(=O)/c(=C/c2ccccc2)[nH]c1=O [Plinabulin, reference compound] : reported IC50 = 5.74

For this compound ( "C=CC(=O)N1CCN(CCCn2cnc(/C=c3\[nH]c(=O)/c(=C/c4cccc(F)c4)[nH]c3=O)c2C(C)C)CC1" ), measured IC50 is 14.1

The recorded IC50 for "CC(C)c1c(/C=c2\[nH]c(=O)/c(=C/c3cccc(C(=O)c4ccc(F)cc4)c3)[nH]c2=O)ncn1CCCN1CCN(C)CC1" is 13.8

What the record says about "O=C(c1ccc(F)cc1)c1cccc(/C=c2\[nH]c(=O)/c(=C/c3ncn(CCCN4CCOCC4)c3C3CC3)[nH]c2=O)c1" : IC50 is 2.15

Measured IC50, "COc1cccc(/C=c2\[nH]c(=O)/c(=C/c3ncn(CCCN4CCOCC4)c3C(C)C)[nH]c2=O)c1" : 8.49

Just so you know, measured IC50 for "CC(C)c1c(/C=c2\[nH]c(=O)/c(=C/c3cccc(C(=O)c4ccc(F)cc4)c3)[nH]c2=O)ncn1CCCN1CCN(C(=O)C2CCC2)CC1" came out at 2.97

###

Tested on: HCC-LM3
Experiment: Inhibition test on cell proliferation (MTT), HCC-LM3
Type: cell-based, human
Conditions: Homo sapiens, HCCLM3, 72 h, 72 hours of drug treatment, MTT; read-out: IC50 (nM) HCC-LM3
Text: Tumor cells (NCI-H460, BxPC-3, HT-29, HCC-LM3) in the logarithmic growth phase were digested, centrifuged, and the supernatants were removed. Cells were resuspended by adding fresh culture medium, and counted using a cell counting plate. […] Subsequently, the absorbance (OD value) was detected at a wavelength of 490 nm using a microplate reader. […]
measured-property: IC50 (nM)
Your answer is read as nM, so omit the unit and give the number.

Reference set (2 entries):
CC(=O)N1CCN(CCCn2cnc(/C=c3\[nH]c(=O)/c(=C/c4cccc(F)c4)[nH]c3=O)c2C(C)C)CC1	26.1
Cc1ccccc1/C=c1\[nH]c(=O)/c(=C/c2ncn(CCCN3CCOCC3)c2C(C)C)[nH]c1=O	18.4

# IC50 of "CCC(=O)N1CCN(CCCn2cnc(/C=c3\[nH]c(=O)/c(=C/c4cccc(F)c4)[nH]c3=O)c2C(C)C)CC1" = 20.9

Data point: "O=c1[nH]/c(=C\c2ncn(CCCN3CCOCC3)c2C2CC2)c(=O)[nH]/c1=C\c1ccccc1" ; IC50 = 16.6

Sure, the documented IC50 for "Cc1cccc(/C=c2\[nH]c(=O)/c(=C/c3ncn(CCCN4CCOCC4)c3C(C)C)[nH]c2=O)c1C" is 20.8

###

system: NCI-H460; assay: Inhibition test on cell proliferation (MTT), NCI-H460; assay type: cell-based, human; details: Homo sapiens, NCI-H460, 72 h, read-out: IC50 (nM) NCI-H460, 72 hours of drug treatment, MTT
Attribute: IC50
Write it as a number; the unit nM goes unstated.

CC(C)c1c(/C=c2\[nH]c(=O)/c(=C/c3cccc(C(=O)c4ccc(F)cc4)c3)[nH]c2=O)ncn1CCCN1CCN(C(=O)C23CC4CC(CC(C4)C2)C3)CC1	37.2
O=c1[nH]/c(=C\c2ncn(CCCN3CCNCC3)c2C2CC2)c(=O)[nH]/c1=C\c1cccc(Oc2ccc(F)cc2)c1	213

Now for another entry.
Tested on NCI-H460, the item "CC(C)c1c(/C=c2\[nH]c(=O)/c(=C/c3cccc(C(=O)c4ccc(F)cc4)c3)[nH]c2=O)ncn1CCCN1CCN(S(C)(=O)=O)CC1" showed IC50 equal to 6.59

###

test system: HCC-LM3; test: Inhibition test on cell proliferation (MTT), HCC-LM3; type: cell-based, human; conditions: Homo sapiens, HCCLM3, 72 h, 72 hours of drug treatment, MTT; read-out: IC50 (nM) HCC-LM3
measured-property: IC50 (nM)
Give a bare numeral; the unit nM is implied.

# count of solved cases: 3
CC(C)c1c(/C=c2\[nH]c(=O)/c(=C/c3cccc(F)c3)[nH]c2=O)ncn1CCCN1CCO[C@H](C)C1	4.26
CC(C)c1c(/C=c2\[nH]c(=O)/c(=C/c3cc(F)ccc3F)[nH]c2=O)ncn1CCCN1CCOCC1	3.3
Cc1cccc(/C=c2\[nH]c(=O)/c(=C/c3ncn(CCCN4CCOCC4)c3C(C)C)[nH]c2=O)c1	7.49

// "CC(C)c1c(/C=c2\[nH]c(=O)/c(=C/c3cc(F)cc(F)c3)[nH]c2=O)ncn1CCCN1CCOCC1" : IC50 value = 3.89

response.value for "O=C(c1ccc(F)cc1)c1cccc(/C=c2\[nH]c(=O)/c(=C/c3ncn(CCCN4CCOCC4)c3C3CC3)[nH]c2=O)c1" (field: IC50) = 6.31

Given item "CC(C)c1c(/C=c2\[nH]c(=O)/c(=C/c3cccc4ccccc34)[nH]c2=O)ncn1CCCN1CCOCC1" , the value recorded as its IC50 is 3.48
